Where these numbers come from: patent US20220087987A1

Experiment: Drug library screen, cell viability (CellTiter-Glo)
Format: cell-based, human
Conditions: human; HCT116 ARID1A-WT; 10 μM for 5 days; relative to cells treated with solvent (DMSO); read-out: Cell viability, WT
Where a name gives a salt, the structure may show the parent alone.
One threshold, 90%, splits the recorded viability at 5 days, 10 μM values: lower ones are true, equal or higher ones are false.

Reference set (5 entries):
Compound: N=C(N)NN [Aminoguanidine, HCl]
Category: false
--
Compound: COC(=O)Nc1nc2ccc(C(=O)c3cccs3)cc2[nH]1 [Nocodazole]
Category: true
--
Compound: C[C@@H]1C[C@H]2O[C@@H]2/C=C\C=C\C(=O)Cc2c(Cl)c(O)cc(O)c2C(=O)O1 [Radicicol]
Category: true
--
Compound: CO[C@@H]1[C@H](OC(=O)/C=C/C=C/C=C/C=C/C(=O)O)CC[C@]2(CO2)[C@H]1[C@@]1(C)O[C@@H]1CC=C(C)C [Fumagillin]
Category: false
--
Compound: CC(C)C[C@@H](N)[C@H](O)C(=O)N[C@H](C(=O)N[C@H](C(=O)N[C@@H](CC(=O)O)C(=O)O)C(C)C)C(C)C [Amastatin]
Category: false

Next compound, please.
API: query returns whether the compound falls strictly under 90% in viability at 5 days, 10 μM. Query: COc1ccc(Cl)cc1C(=O)NCCc1ccc(S(=O)(=O)NC(=O)NC2CCCCC2)cc1 [Glibenclamide]
false

---

Assay: Drug library screen, cell viability (CellTiter-Glo)
Assay type: cell-based, human
Conditions: human; HCT116 ARID1A-WT; 10 μM for 5 days; relative to cells treated with solvent (DMSO); read-out: Cell viability, WT
Counter-ions that a name gives are not always drawn.
Measurement Name: viability at 5 days, 10 μM (%)
Answers are plain numbers, in %.

# count of solved cases: 3
Compound: CO[C@H]1C[C@@H]2CC[C@@H](C)[C@@](O)(O2)C(=O)C(=O)N2CCCC[C@H]2C(=O)O[C@H]([C@H](C)C[C@@H]2CC[C@@H](O)[C@H](OC)C2)CC(=O)[C@H](C)/C=C(\C)[C@@H](O)[C@@H](OC)C(=O)[C@H](C)C[C@H](C)/C=C/C=C/C=C/1C [Rapamycin]
Unit Spec: %
viability at 5 days, 10 μM: 169
--
Compound: COc1cccc2c1C(=O)c1c(O)c3c(c(O)c1C2=O)C[C@@](O)(C(=O)CO)C[C@@H]3O[C@H]1C[C@H](N)[C@H](O)[C@H](C)O1 [Doxorubicin, HCl]
Unit Spec: %
viability at 5 days, 10 μM: 4.81
--
Compound: Cc1cc(Nc2cc(N3CCN(C)CC3)nc(/C=C/c3ccccc3)n2)n[nH]1 [ENMD-2076]
Unit Spec: %
viability at 5 days, 10 μM: 9.16

Given the entry CCOC(=O)C(C)(C)Oc1ccc(Cl)cc1 [Clofibrate] , report its measured viability at 5 days, 10 μM.
110

---

Assay: Drug library screen, cell viability (CellTiter-Glo)
Type: cell-based, human
Conditions: human; HCT116 ARID1A-WT; 10 μM for 5 days; relative to cells treated with solvent (DMSO); read-out: Cell viability, WT
Kindly state viability at 5 days, 10 μM for each of the entries shown.
Answers are plain numbers, in %.

Molecule: COc1cc([C@@H]2c3cc4c(cc3[C@@H](O[C@@H]3O[C@@H]5CO[C@@H](C)O[C@H]5[C@H](O)[C@H]3O)[C@H]3COC(=O)[C@H]23)OCO4)cc(OC)c1O [Etoposide (VP-16), Etoposide]
Measurement Name: viability at 5 days, 10 μM
Result Value: 30.6

Molecule: Cc1ccc(Nc2nccc(N(C)c3ccc4c(C)n(C)nc4c3)n2)cc1S(N)(=O)=O
Measurement Name: viability at 5 days, 10 μM
Result Value: 19.8

From here, focus on the item given below.
Given the entry C[C@]1(O)C[C@@H](c2nc(-c3ccc4ccc(-c5ccccc5)nc4c3)c3c(N)nccn32)C1 , report its measured viability at 5 days, 10 μM.
59.1

---

System: ARID1A-WT HCT116 cells
Test: Drug library screen, cell viability (CellTiter-Glo)
Format: cell-based, human
Settings: HCT116 ARID1A-WT; 10 μM for 5 days; relative to cells treated with solvent (DMSO)
Peptide text beside a SMILES is read from it. * marks the point of attachment. Cbz = O=C(OCc1ccccc1)*; CH2F = FC*
One threshold, 90, splits the recorded Cell viability, WT values: lower ones are criterion met, equal or higher ones are criterion not met.

Reference set (8 entries):
Compound: C=CCNC1=C2C[C@@H](C)C[C@H](OC)[C@H](O)[C@@H](C)/C=C(\C)[C@H](OC(N)=O)[C@@H](OC)/C=C\C=C(/C)C(=O)NC(=CC1=O)C2=O [17-AAG]
Measured Target: ARID1A-WT HCT116 cells
Category: criterion met
--
Compound: C/C(O)=C(\C#N)C(=O)Nc1cc(Br)ccc1Br [LFM-A13]
Measured Target: ARID1A-WT HCT116 cells
Category: criterion not met
--
Compound: O=S(=O)(c1cccc2c(I)cccc12)N1CCCNCC1 [ML-7]
Measured Target: ARID1A-WT HCT116 cells
Category: criterion met
--
Compound: CC(C)(c1ccc(OCC2CO2)cc1)c1ccc(OCC2CO2)cc1 (centres unmarked) [BADGE]
Measured Target: ARID1A-WT HCT116 cells
Category: criterion not met
--
Compound: Clc1ccccc1CNCC1CCC(CNCc2ccccc2Cl)CC1 (centres unmarked) [AY 9944]
Measured Target: ARID1A-WT HCT116 cells
Category: criterion met
--
Compound: CN(C)CCCn1cc(C2=C(c3c[nH]c4ccccc34)C(=O)NC2=O)c2ccccc21.Cl [Bisindolymaleimide I, HCl]
Measured Target: ARID1A-WT HCT116 cells
Category: criterion met
--
Compound: COc1cc2nccc(Oc3ccc(NC(=S)NC(=O)c4ccccc4C)cc3)c2cc1OC
Measured Target: ARID1A-WT HCT116 cells
Category: criterion not met
--
Compound: NC(=O)c1ccc(-c2nc(-c3ccccn3)c(-c3ccc4c(c3)OCO4)[nH]2)cc1 [SB 431542]
Measured Target: ARID1A-WT HCT116 cells
Category: criterion met

API: query returns whether the compound falls strictly under 90 in Cell viability, WT. Query: Cc1[nH]c(/C=C2\C(=O)Nc3ccc(S(=O)(=O)N(C)c4cccc(Cl)c4)cc32)c(C)c1C(=O)N1CCN(C)CC1 [SU11274]
criterion met

COC(=O)C[C@H](NC(=O)[C@H](C)NC(=O)[C@@H](NC(=O)OCc1ccccc1)C(C)C)C(=O)CF [Z-VAD-FMK] (Cbz-Val-Ala-Asp(OMe)-CH2F) ?
criterion not met

CC(C)Cn1c(=O)n(C)c(=O)c2[nH]cnc21 [IBMX] ?
criterion not met

O=c1[nH]c2ccccc2n1C1CCN(Cc2ccc(-c3nc4cc5[nH]cnc5cc4nc3-c3ccccc3)cc2)CC1 ?
criterion met

OCCn1cc(-c2cnc3nnn(Cc4ccc5ncccc5c4)c3n2)cn1 [PF-04217903] ?
criterion met

O=[N+]([O-])c1ccc(-c2nc(-c3ccc(F)cc3)c(-c3ccncc3)[nH]2)cc1 [PD169316] ?
criterion not met

NC(=O)c1ccc2nc(-c3ccc(Oc4ccc(Cl)cc4)cc3)[nH]c2c1 [Chk2 inhibitor II] ?
criterion not met

CC(C)[C@H](CO)Nc1nc(Nc2cccc(Cl)c2)c2ncn(C(C)C)c2n1 [Purvalanol A] ?
criterion met

CCOC(=O)c1c(C)[nH]c(/C=C2\C(=O)Nc3ccccc32)c1C [VEGF recptor 2 kinase inhibitor I] ?
criterion not met

---

System: ARID1A-KO HCT116 cells
Test: Drug library screen, cell viability (CellTiter-Glo)
Assay type: cell-based, human
Details: HCT116 ARID1A-KO; 10 μM for 5 days; relative to cells treated with solvent (DMSO)
Square brackets hold non-standard residues; d marks the D form. Peptide text beside a SMILES is read from it. * marks the point of attachment. Sta = CC(C)C[C@H](N)[C@@H](O)CC(=O)O; Isovaleryl = CC(C)CC(=O)*
One threshold, 80, splits the recorded Cell viability, KO values: lower ones are condition met, equal or higher ones are condition not met.

Compound: CC1CNCCN1S(=O)(=O)c1cccc2cnccc12 (stereo not drawn) [H-7]
Category: condition met

Compound: C=CCc1cccc(/C=N/NC(=O)CN2CCN(Cc3ccccc3)CC2)c1O [PAC-1]
Category: condition met

API: query returns whether the compound falls strictly under 80 in Cell viability, KO. Query: CC(C)CC(=O)N[C@H](C(=O)N[C@H](C(=O)N[C@@H](CC(C)C)[C@@H](O)CC(=O)N[C@@H](C)C(=O)N[C@@H](CC(C)C)[C@@H](O)CC(=O)O)C(C)C)C(C)C [Pepstatin A] (Isovaleryl-VV[Sta]A[Sta]-OH)
condition not met

CCCCCCCCCCCCCCCc1cccc(O)c1C(=O)O [Anacardic acid] ?
condition not met

CCCCN1C(=O)C2Cc3c([nH]c4ccccc34)C(c3cccc(O)c3)N2C1=O (stereo not drawn) [HR22C16] ?
condition met
